- Target entity: Adenosine receptor A3 (Homo sapiens)
- Experimental details: Agonist activity at human recombinant adenosine A3 receptor expressed in CHO cells assessed as inhibition of forskolin-stimulated cAMP production at 10 uM treated 45 mins before forskolin challenge measured after 15 mins by radioimmunoassay relative to NECA
- Type: functional, cell-based
Experimental readout: Efficacy (%)
Field: numeric (%). Do not append units.

Some compounds with recorded Efficacy:
CNC(=O)[C@]12C[C@@H]1[C@@H](n1cnc3c(NCc4cccc(Cl)c4)nc(C#CCCCCC(=O)OC)nc31)[C@H](O)[C@@H]2O :: 85
CNC(=O)[C@]12C[C@H]1[C@@H](n1cnc3c(NCc4cccc(Cl)c4)nc(C#CCCC(=O)NCCN)nc31)[C@@H](O)[C@H]2O :: 25.6
CNC(=O)[C@]12C[C@@H]1[C@@H](n1cnc3c(NCc4cccc(Cl)c4)nc(C#CCCC(=O)NCCCCN)nc31)[C@H](O)[C@@H]2O :: 102
O[C@@H]1[C@H](O)[C@@H]2C[C@@H]2[C@H]1n1cnc2c(NCc3cccc(Cl)c3)ncnc21 :: 58.3
CNC(=O)[C@]12C[C@@H]1[C@@H](n1cnc3c(NCc4cccc(Cl)c4)nc(C#CCCC(=O)NCCCN)nc31)[C@H](O)[C@@H]2O :: 97.9

Short answer for "CNC(=O)[C@]12C[C@@H]1[C@@H](n1cnc3c(NCc4cccc(Cl)c4)nc(C#CCCC(=O)NCCNCCN)nc31)[C@H](O)[C@@H]2O" : Efficacy was 87.6

Measured Efficacy, "O[C@@H]1[C@H](O)[C@@H]2C[C@@H]2[C@H]1n1cnc2c(NCc3cccc(I)c3)nc(F)nc21" : 19

So for "CNC(=O)[C@]12C[C@@H]1[C@@H](n1cnc3c(NCc4cccc(Cl)c4)nc(C#CCCC(=O)O)nc31)[C@H](O)[C@@H]2O" , the logged Efficacy turned out to be 106

Entry "NCCNC(=O)CCC#Cc1nc(NCc2cccc(Cl)c2)c2ncn([C@H]3[C@H](O)[C@H](O)[C@@H]4C[C@@H]43)c2n1" ; Efficacy = 0.9

Lab note: "CNC(=O)[C@]12C[C@@H]1[C@@H](n1cnc3c(NCc4cccc(Cl)c4)nc(C#CCCC(=O)NCCNC(=O)CCCC[C@H]4SC[C@H]5NC(=O)N[C@H]54)nc31)[C@H](O)[C@@H]2O" gave Efficacy of 84.5

Kindly note the recorded Efficacy for "CNC(=O)[C@]12C[C@@H]1[C@@H](n1cnc3c(NCc4cccc(Cl)c4)nc(C#CCCCCC(=O)O)nc31)[C@H](O)[C@@H]2O" , which is 74.4

Record summary for "CNC(=O)[C@]12C[C@H]1[C@@H](n1cnc3c(NCc4cccc(Cl)c4)nc(C#CCCCCC(=O)NCCN)nc31)[C@@H](O)[C@H]2O" : reported Efficacy = 52

The recorded Efficacy for "O[C@@H]1[C@H](O)[C@@H]2C[C@@H]2[C@H]1n1cnc2c(NCc3cccc(I)c3)ncnc21" is 80.8

---

- Target entity: Adenosine receptor A2a (Homo sapiens, UniProt P29274)
- Sequence (P29274 whole entry): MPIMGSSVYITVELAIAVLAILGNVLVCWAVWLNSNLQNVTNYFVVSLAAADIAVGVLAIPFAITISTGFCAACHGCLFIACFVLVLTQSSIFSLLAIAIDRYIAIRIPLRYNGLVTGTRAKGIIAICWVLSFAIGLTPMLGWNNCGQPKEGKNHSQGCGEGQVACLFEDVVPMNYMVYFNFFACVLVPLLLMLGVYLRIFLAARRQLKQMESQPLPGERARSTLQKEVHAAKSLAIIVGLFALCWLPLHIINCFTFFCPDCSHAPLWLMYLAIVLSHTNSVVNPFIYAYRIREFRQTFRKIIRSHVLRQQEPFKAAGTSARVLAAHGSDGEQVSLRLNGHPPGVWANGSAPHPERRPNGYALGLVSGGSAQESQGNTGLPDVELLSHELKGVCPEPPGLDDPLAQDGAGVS
compounds and their reported Ki
Give just the numeric value; µM need not be written.

For this compound ( "CNC(=O)[C@]12C[C@@H]1[C@@H](n1cnc3c(NCc4cccc(Cl)c4)nc(C#CCCCCC(=O)OC)nc31)[C@H](O)[C@@H]2O" ), measured Ki is 3.54

compound "CNC(=O)[C@]12C[C@@H]1[C@@H](n1cnc3c(NCc4cccc(Cl)c4)nc(Cl)nc31)[C@H](O)[C@@H]2O" , Ki observed: 2.3

Just so you know, measured Ki for "CNC(=O)[C@]12C[C@@H]1[C@@H](n1cnc3c(NCc4cccc(Cl)c4)nc(C#CCCC(=O)NCCCCN)nc31)[C@H](O)[C@@H]2O" came out at 0.766

# compound "CNC(=O)[C@]12C[C@@H]1[C@@H](n1cnc3c(NCc4cccc(Cl)c4)nc(C#CCCC(=O)NCCNCCN)nc31)[C@H](O)[C@@H]2O" ; its Ki = 0.89
